tested on: NCI 60 cancer cell lines; experiment: NCI anticancer screening over a panel of 60 cancer cells, single concentration 10 µM; assay type: cell-based, human; conditions: Homo sapiens, SF-539, CNS Cancer SF-539, 10 μM; read-out: Growth inhibition (GI %)
Catalogue of inhibition at 10 µM readings, one per entry.
Just the number in %, nothing appended.

{"COMPOUND": "CC(=O)c1cnn(-c2cc(=O)[nH]c3ccc(Cl)cc23)c1C [Compound 2d]", "inhibition at 10 µM, %": 14.4}
{"COMPOUND": "CC(=O)c1cnn(-c2cc(=O)[nH]c3ccc(Br)cc23)c1C [Compound 2e]", "inhibition at 10 µM, %": 7.46}

Attention now shifts to the item below.
Note to self: inhibition at 10 µM recorded for CC(=O)c1cnn(-c2cc(=O)[nH]c3ccccc23)c1C [Compound 2a] was 13

---

experiment: in vitro; conditions: human, % viability
REPORTED_METRIC: viability at 6.3 µM (%)
The answer is to be given in %; state only the numeric part.

According to the records, this molecule CN[C@@H]1C[C@H]2O[C@@](C)([C@@H]1OC)n1c3ccccc3c3c4c(c5c6ccccc6n2c5c31)C(=O)NC4 [Staurosporine, reference compound] displays viability at 6.3 µM of 56.2

---

Below are molecules with their IC50 as measured on EGFR (Homo sapiens).
Sequence (P00533 669-1210): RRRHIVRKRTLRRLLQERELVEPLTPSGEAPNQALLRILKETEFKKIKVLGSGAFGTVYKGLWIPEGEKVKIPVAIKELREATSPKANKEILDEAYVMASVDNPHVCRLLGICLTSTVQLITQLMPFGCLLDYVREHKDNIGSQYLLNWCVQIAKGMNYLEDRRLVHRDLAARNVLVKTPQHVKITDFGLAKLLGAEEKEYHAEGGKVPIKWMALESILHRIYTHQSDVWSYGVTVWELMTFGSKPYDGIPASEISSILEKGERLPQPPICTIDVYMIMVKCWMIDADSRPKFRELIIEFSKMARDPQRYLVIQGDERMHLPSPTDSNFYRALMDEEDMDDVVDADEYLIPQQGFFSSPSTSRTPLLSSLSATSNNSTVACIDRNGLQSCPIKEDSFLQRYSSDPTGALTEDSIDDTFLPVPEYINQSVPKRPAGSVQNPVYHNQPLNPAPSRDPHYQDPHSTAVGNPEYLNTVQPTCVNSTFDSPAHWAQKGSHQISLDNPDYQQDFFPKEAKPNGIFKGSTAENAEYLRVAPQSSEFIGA
Note: unit nM is implicit; provide only the numeric part.

Check out these entries, answers already filled in.
{"SAMPLE_SMILES": "C/C(=N\\Nc1ccc(C(=O)O)cc1)c1cnn(-c2cc(=O)[nH]c3ccc(C)cc23)c1C", "UNIT_OF_MEASUREMENT": "nM", "IC50": 194}
{"SAMPLE_SMILES": "C/C(=N\\Nc1ccc(C(=O)O)cc1)c1cnn(-c2cc(=O)[nH]c3ccccc23)c1C", "UNIT_OF_MEASUREMENT": "nM", "IC50": 640}
{"SAMPLE_SMILES": "C/C(=N\\Nc1ccc(S(N)(=O)=O)cc1)c1cnn(-c2cc(=O)[nH]c3ccc(Br)cc23)c1C", "UNIT_OF_MEASUREMENT": "nM", "IC50": 55}

As a next step, examine the molecule that follows.
Bench note, EGFR (Homo sapiens): entry C/C(=N\Nc1ccc(S(N)(=O)=O)cc1)c1cnn(-c2cc(=O)[nH]c3ccc(Cl)cc23)c1C , its IC50 = 156

---

Here, each record is paired with measured inhibition at 10 µM data.
tested on: NCI 60 cancer cell lines; test: NCI anticancer screening over a panel of 60 cancer cells, single concentration 10 µM; type: cell-based, human; details: Homo sapiens, RPMI-8226, Leukemia RPMI-8226, 10 μM; read-out: % Growth Inhibition (GI %)

{"SAMPLE_SMILES": "C/C(=N\\Nc1ccc(C(=O)O)cc1)c1cnn(-c2cc(=O)[nH]c3ccc(Cl)cc23)c1C", "inhibition at 10 µM": "< 5%"}
{"SAMPLE_SMILES": "C/C(=N\\Nc1ccc(C(=O)O)cc1)c1cnn(-c2cc(=O)[nH]c3ccc(Br)cc23)c1C", "inhibition at 10 µM": "< 5%"}
{"SAMPLE_SMILES": "C/C(=N\\Nc1ccc(C(=O)O)cc1)c1cnn(-c2cc(=O)[nH]c3ccccc23)c1C", "inhibition at 10 µM": "< 5%"}
{"SAMPLE_SMILES": "C/C(=N\\Nc1ccc(S(N)(=O)=O)cc1)c1cnn(-c2cc(=O)[nH]c3ccccc23)c1C", "inhibition at 10 µM": "11.2%"}

The compound listed as C/C(=N\Nc1ccc(S(N)(=O)=O)cc1)c1cnn(-c2cc(=O)[nH]c3ccc(C)cc23)c1C shows inhibition at 10 µM equal to < 5%

Reported inhibition at 10 µM for C/C(=N\Nc1ccc(S(N)(=O)=O)cc1)c1cnn(-c2cc(=O)[nH]c3ccc(Cl)cc23)c1C was 15.7%

---

system: NCI 60 cancer cell lines; assay: NCI anticancer screening over a panel of 60 cancer cells, single concentration 10 µM; assay type: cell-based, human; details: Homo sapiens, MCF7, Breast cancer MCF7, 10 μM; read-out: % Growth Inhibition (GI %)
// inhibition at 10 µM lookup, one value per entry
Give the quantity in %, number only.

{"COMPOUND": "COc1ccc2[nH]c(=O)cc(-n3ncc(/C(C)=N/Nc4ccc(C(=O)O)cc4)c3C)c2c1 [Compound 4h]", "inhibition at 10 µM (%)": 5.52}
{"COMPOUND": "C/C(=N\\Nc1ccc(S(N)(=O)=O)cc1)c1cnn(-c2cc(=O)[nH]c3ccc(C)cc23)c1C [Compound 4b]", "inhibition at 10 µM (%)": 16.1}
{"COMPOUND": "C/C(=N\\Nc1ccc(C(=O)O)cc1)c1cnn(-c2cc(=O)[nH]c3ccccc23)c1C [Compound 4f]", "inhibition at 10 µM (%)": 5.99}
{"COMPOUND": "COc1ccc2[nH]c(=O)cc(-n3ncc(/C(C)=N/Nc4ccc(S(N)(=O)=O)cc4)c3C)c2c1 [Compound 4c]", "inhibition at 10 µM (%)": 6.69}

# input for lookup
// field: inhibition at 10 µM; key: C/C(=N\Nc1ccc(S(N)(=O)=O)cc1)c1cnn(-c2cc(=O)[nH]c3ccccc23)c1C [Compound 4a] ; value = 13.9

---

tested on: NCI 60 cancer cell lines; test: NCI anticancer screening over a panel of 60 cancer cells, single concentration 10 µM; format: cell-based, human; conditions: Homo sapiens, SK-MEL-28, Melanoma SK-MEL-28, 10 μM; read-out: % Growth Inhibition (GI %)
REPORTED_METRIC: inhibition at 10 µM

response.value for C/C(=N\Nc1ccc(S(N)(=O)=O)cc1)c1cnn(-c2cc(=O)[nH]c3ccc(Cl)cc23)c1C (field: inhibition at 10 µM) = 24.7%

---

Listing of entries alongside the reported viability at 24 h, 100 µM.
test: MTT cytotoxicity on normal cell line WI-38; details: human, WI-38 normal cells, % viability, WI38, 100uM (log conc. 2)
The answer is to be given in %; state only the numeric part.

Look over these answered cases.
{"COMPOUND": "C/C(=N\\Nc1ccc(C(=O)O)cc1)c1cnn(-c2cc(=O)[nH]c3ccc(C)cc23)c1C [Compound 4g]", "viability at 24 h, 100 µM / %": 44.1}
{"COMPOUND": "C/C(=N\\Nc1ccc(C(=O)O)cc1)c1cnn(-c2cc(=O)[nH]c3ccccc23)c1C [Compound 4f]", "viability at 24 h, 100 µM / %": 41.6}
{"COMPOUND": "C/C(=N\\Nc1ccc(S(N)(=O)=O)cc1)c1cnn(-c2cc(=O)[nH]c3ccc(Br)cc23)c1C [Compound 4e]", "viability at 24 h, 100 µM / %": 42.1}

Field: next compound
For reference, reported viability at 24 h, 100 µM for C/C(=N\Nc1ccc(S(N)(=O)=O)cc1)c1cnn(-c2cc(=O)[nH]c3ccc(Cl)cc23)c1C [Compound 4d] stands at 46.8

---

target: EGFR (Homo sapiens); construct: EGFR cytoplasmic domain (EGFR-CD, amino acids 645–1186); His6 (N); made in house; host or cells: Sf-9 insect cells (baculovirus); test: EGFR inhibitory assay; assay type: biochemical; conditions: EGFR, conc 0.1 (log -1), unit not given
Entries and their %inh values follow.
Express your answer in %, writing the number without its unit.

{"SAMPLE_SMILES": "C/C(=N\\Nc1ccc(C(=O)O)cc1)c1cnn(-c2cc(=O)[nH]c3ccc(C)cc23)c1C", "%inh / %": 44.2}

Lab note: C/C(=N\Nc1ccc(C(=O)O)cc1)c1cnn(-c2cc(=O)[nH]c3ccccc23)c1C gave %inh of 26

The recorded %inh for entry C/C(=N\Nc1ccc(S(N)(=O)=O)cc1)c1cnn(-c2cc(=O)[nH]c3ccc(Br)cc23)c1C equals 50.6

Sample C/C(=N\Nc1ccc(S(N)(=O)=O)cc1)c1cnn(-c2cc(=O)[nH]c3ccc(Cl)cc23)c1C ; %inh observed: 40.6

---

test: MTT cytotoxicity on normal cell line WI-38; details: human, WI-38 normal cells, % viability, WI38, 25uM (log conc. 1.4)
REPORTED_METRIC: viability at 24 h, 25 µM (%)
Provide only the numeric value, understood in %.

Looking up C/C(=N\Nc1ccc(S(N)(=O)=O)cc1)c1cnn(-c2cc(=O)[nH]c3ccc(Cl)cc23)c1C [Compound 4d] , I found its viability at 24 h, 25 µM recorded as 56.2

Looking up C/C(=N\Nc1ccc(C(=O)O)cc1)c1cnn(-c2cc(=O)[nH]c3ccc(C)cc23)c1C [Compound 4g] , I found its viability at 24 h, 25 µM recorded as 51.6

# viability at 24 h, 25 µM (molecule: C/C(=N\Nc1ccc(C(=O)O)cc1)c1cnn(-c2cc(=O)[nH]c3ccccc23)c1C [Compound 4f] ) is 54.9

GET /value?item= C/C(=N\Nc1ccc(S(N)(=O)=O)cc1)c1cnn(-c2cc(=O)[nH]c3ccc(Br)cc23)c1C [Compound 4e] &field=viability at 24 h, 25 µM returns 50.4
